Quick reference: pIC50 of the listed items.
Molecular target: Human KLKB1 (Homo sapiens (Human))
Test: KLKB1 kallikrein activity inhibition assay (chromogenic substrate S-2302)
Format: biochemical
Settings: Table C
pIC50: −log10 of the molar value.

- QUERY_SMILES: "CC(C)(C)C(=O)n1nc(-c2ccccn2)nc1NCc1ccc(F)cc1"
  TARGET_DESC: "Human KLKB1 (Homo sapiens (Human))"
  pIC50: "4.00 to 5.00"
- QUERY_SMILES: "CC(C)(C)C(=O)n1nc(-c2ccco2)nc1NCc1ccccc1"
  TARGET_DESC: "Human KLKB1 (Homo sapiens (Human))"
  pIC50: "< 4.00"
- QUERY_SMILES: "CCC(=O)n1nc(-c2ccncc2)nc1NCc1ccccc1"
  TARGET_DESC: "Human KLKB1 (Homo sapiens (Human))"
  pIC50: "< 4.00"
- QUERY_SMILES: "O=C(c1ccoc1)n1nc(-c2ccncc2)nc1NCc1ccccc1"
  TARGET_DESC: "Human KLKB1 (Homo sapiens (Human))"
  pIC50: "4.00 to 5.00"

// below: pIC50 requested for another molecule
INPUT: Report pIC50 for COc1ccccc1C(=O)n1nc(-c2cncnc2)nc1NCc1ccccc1
OUTPUT: 6.00 to 7.00

* * *

Biological target: Human KLKB1 (Homo sapiens (Human), UniProt P03952)
Sequence (P03952 391-638 limits assumed): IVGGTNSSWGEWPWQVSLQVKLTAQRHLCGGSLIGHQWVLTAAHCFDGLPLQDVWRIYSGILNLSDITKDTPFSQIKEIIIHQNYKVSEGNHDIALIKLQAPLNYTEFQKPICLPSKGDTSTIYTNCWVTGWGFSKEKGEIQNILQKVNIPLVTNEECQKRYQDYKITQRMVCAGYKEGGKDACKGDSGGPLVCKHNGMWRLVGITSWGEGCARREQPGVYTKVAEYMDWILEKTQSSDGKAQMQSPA
Sequence (P03952 20-390 partner limits assumed): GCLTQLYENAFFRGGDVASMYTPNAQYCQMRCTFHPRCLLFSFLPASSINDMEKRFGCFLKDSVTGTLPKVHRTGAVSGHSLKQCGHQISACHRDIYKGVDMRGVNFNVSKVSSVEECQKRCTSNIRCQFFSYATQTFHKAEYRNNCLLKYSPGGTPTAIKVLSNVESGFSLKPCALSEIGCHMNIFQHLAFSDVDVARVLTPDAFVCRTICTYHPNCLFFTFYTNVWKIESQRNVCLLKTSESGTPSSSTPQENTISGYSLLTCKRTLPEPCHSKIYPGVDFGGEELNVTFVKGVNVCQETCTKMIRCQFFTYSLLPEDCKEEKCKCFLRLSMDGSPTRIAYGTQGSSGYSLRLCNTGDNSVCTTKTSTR
Assay: KLKB1 kallikrein activity inhibition assay (chromogenic substrate S-2302)
Type: biochemical
Conditions: Table C
pIC50: −log10 of the molar value.
Quick reference: pIC50 of the listed items.

- COMPOUND: "CCC(=O)n1nc(-c2ccncc2)nc1NCc1ccc(F)cc1 [Cmpd 318]"
  MEASUREMENT_KIND: "pIC50"
  ENDPOINT_VALUE: "< 4.00"
- COMPOUND: "CC(C)OC(=O)n1nc(-c2cccnc2)nc1NCc1ccc(F)cc1 [Cmpd 410]"
  MEASUREMENT_KIND: "pIC50"
  ENDPOINT_VALUE: "< 4.00"
- COMPOUND: "COc1ccccc1C(=O)n1nc(-c2cccnc2)nc1NCc1ccc(F)cc1 [Cmpd 368]"
  MEASUREMENT_KIND: "pIC50"
  ENDPOINT_VALUE: "5.00 to 6.00"
- COMPOUND: "COc1ccc(CNc2nc(-c3cccnc3)nn2C(=O)CCc2ccccc2)cc1 [Cmpd 329]"
  MEASUREMENT_KIND: "pIC50"
  ENDPOINT_VALUE: "< 4.00"
- COMPOUND: "O=C(Cc1ccccc1)n1nc(-c2ccco2)nc1NCc1ccccc1 [Cmpd 343]"
  MEASUREMENT_KIND: "pIC50"
  ENDPOINT_VALUE: "< 4.00"

INPUT: Report pIC50 for CC(C)CC(=O)n1nc(-c2ccncc2)nc1NCc1ccc(F)cc1 [Cmpd 316]
OUTPUT: < 4.00

INPUT: Report pIC50 for CC(C)(C)C(=O)n1nc(-c2cccs2)nc1NCc1ccccc1 [Cmpd 357]
OUTPUT: < 4.00

INPUT: Report pIC50 for O=C(c1ccoc1)n1nc(-c2ccccn2)nc1NCc1ccc(F)cc1 [Cmpd 371]
OUTPUT: 5.00 to 6.00

INPUT: Report pIC50 for COc1ccc(CNc2nc(-c3ccccn3)nn2C(=O)c2ccsc2)cc1 [Cmpd 380]
OUTPUT: 5.00 to 6.00
